These data points were gathered from patent US11033547B2.

Tested on: pERK level in KYSE520 cells
Assay Summary: p-Erk cellular assay in KYSE520 (Mesoscale)
Type: cell-based
Conditions Used: 2 h incubation, read-out: pERK1/2 in KYSE520 IC50
Measurement Name: pIC50
pIC50 here is simply -log10 of the concentration when that concentration is written in mol/L.

[
  {
    "Molecule": "CC1(N)CCN(c2nc(N)c(-c3cccc(Cl)c3Cl)c(C(N)=O)n2)CC1 [Compound No. 3]",
    "pIC50": 6.12
  }
]

Now for another entry.
Prompt: Which pIC50 is reported for this molecule? CC1(N)CCN(c2nc(Cl)c(-c3cccc(Cl)c3Cl)c(C(N)=O)n2)CC1 (atropisomer, axis not shown; (P)) [Compound 79]
Completion: 6.08

----------
Assayed Target: Full length SHP2 protein (Recombinant Human SHP-2) (Homo sapiens, UniProt Q06124)
Sequence (Q06124 2-593 limits assumed): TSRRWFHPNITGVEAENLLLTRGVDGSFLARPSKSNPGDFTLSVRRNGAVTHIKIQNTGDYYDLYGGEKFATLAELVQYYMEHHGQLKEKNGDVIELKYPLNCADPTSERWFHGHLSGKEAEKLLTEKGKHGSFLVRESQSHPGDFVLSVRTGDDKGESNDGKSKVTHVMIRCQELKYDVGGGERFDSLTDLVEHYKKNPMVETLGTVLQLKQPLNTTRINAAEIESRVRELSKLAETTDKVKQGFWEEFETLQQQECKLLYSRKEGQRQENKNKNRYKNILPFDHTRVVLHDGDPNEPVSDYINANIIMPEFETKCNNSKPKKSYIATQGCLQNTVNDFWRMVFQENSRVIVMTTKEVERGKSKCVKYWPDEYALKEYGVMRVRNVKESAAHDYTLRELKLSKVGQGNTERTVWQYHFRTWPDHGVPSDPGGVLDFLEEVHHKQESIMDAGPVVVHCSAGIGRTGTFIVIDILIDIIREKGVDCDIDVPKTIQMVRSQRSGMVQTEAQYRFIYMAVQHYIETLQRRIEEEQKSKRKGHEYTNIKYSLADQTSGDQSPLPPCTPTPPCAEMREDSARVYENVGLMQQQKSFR
Assay Summary: SHP2 biochemical assay (DiFMUP substrate, activating peptide IRSI_2pY)
Conditions Used: DiFMUP substrate, activating peptide IRSI_2pY, 60 min at RT; read-out: SHP-2 Biochemical assay IC50
Measurement Name: log10 of IC50 (log10 of the value in µM)
Would you kindly interpret these values as log10 of IC50 expressed in µM?

Reference set, count: 3
[
  {
    "Compound": "NC(=O)c1nc(N2CCC3(CC2)Oc2ncccc2C3N)nc(N)c1-c1cccc(Cl)c1Cl (single isomer, unassigned) [Compound 128]",
    "log10 of IC50": -2.22
  },
  {
    "Compound": "COc1c(F)ccc(-c2c(C)nc(N3CCC(C)(N)CC3)nc2C(N)=O)c1Cl (atropisomer, axis not shown; (M)) [Compound 115]",
    "log10 of IC50": -0.24
  },
  {
    "Compound": "Cc1nc(N2CCC3(CCC[C@H]3N)CC2)nc(C(N)=O)c1-c1cccc(Cl)c1Cl (single isomer, unassigned) [Compound 113]",
    "log10 of IC50": -0.18
  }
]

Prompt: Which log10 of IC50 is reported for this compound? NCC1CN(c2nc(N)c(-c3cccc(Cl)c3Cl)c(C(N)=O)n2)CC12COC2 (stereo not drawn)
Completion: 0.04

Prompt: Next: NCC1CN(c2nc(N)c(-c3cccc(Cl)c3Cl)c(C(N)=O)n2)CC12CCC2 (stereo not drawn)
Completion: -0.23

----------
Assayed Target: auto-activated mutant protein SHP2 E76K (Homo sapiens (Human), UniProt Q06124, E76K)
Sequence (Q06124 whole entry E76K): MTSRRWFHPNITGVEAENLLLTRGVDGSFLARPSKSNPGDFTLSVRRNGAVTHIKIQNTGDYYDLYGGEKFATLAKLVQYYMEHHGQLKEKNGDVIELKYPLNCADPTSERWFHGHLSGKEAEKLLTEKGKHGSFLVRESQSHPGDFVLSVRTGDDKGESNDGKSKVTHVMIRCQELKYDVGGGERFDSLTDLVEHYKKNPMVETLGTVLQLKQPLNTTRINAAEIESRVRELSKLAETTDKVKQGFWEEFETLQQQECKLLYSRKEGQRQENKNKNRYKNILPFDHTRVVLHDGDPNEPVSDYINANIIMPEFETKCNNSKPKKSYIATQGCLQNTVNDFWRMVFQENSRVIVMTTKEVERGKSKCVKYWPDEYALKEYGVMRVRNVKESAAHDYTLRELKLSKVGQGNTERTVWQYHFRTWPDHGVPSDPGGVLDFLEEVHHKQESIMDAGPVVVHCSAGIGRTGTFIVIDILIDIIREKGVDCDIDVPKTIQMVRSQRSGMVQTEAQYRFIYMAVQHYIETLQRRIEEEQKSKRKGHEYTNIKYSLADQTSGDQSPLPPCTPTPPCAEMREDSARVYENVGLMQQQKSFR
Assay Summary: SHP2 E76K mutant biochemical assay without activating peptide
Conditions Used: no activating peptide, read-out: SHP-2 E76Z IC50 No peptide
Measurement Name: pIC50
pIC50 here is simply -log10 of the concentration when that concentration is written in mol/L.

Prompt: Which pIC50 is reported for this compound? NC(=O)c1nc(N2CCC3(CC2)Cc2ccccc2[C@H]3N)nc(N)c1-c1cccc(Cl)c1Cl (single isomer, unassigned) [Compound 117]
Completion: 9.30

----------
Property: IC50; scope: individual compounds
Assayed Target: Full length SHP2 protein (Recombinant Human SHP-2) (Homo sapiens, UniProt Q06124)
Assay Summary: SHP2 biochemical assay (DiFMUP substrate, activating peptide IRSI_2pY)
Conditions Used: DiFMUP substrate, activating peptide IRSI_2pY, 60 min at RT; read-out: SHP-2 Biochemical assay IC50
Only the number, expressed in nM, is required.

Reference set, count: 2
[
  {
    "Compound": "Cc1nc(N2CC3CN(C)CC3C2)nc(C(N)=O)c1-c1cccc(Cl)c1Cl (stereo not shown)",
    "Units Text": "nM",
    "IC50": 960
  },
  {
    "Compound": "NC(=O)c1nc(N2CCC(N)(C(F)F)CC2)nc(N)c1-c1cccc(Cl)c1Cl (atropisomer, axis not shown; (P)) [Compound 106]",
    "Units Text": "nM",
    "IC50": 15000
  }
]

Now for another entry.
Prompt: Can you look up IC50 on Full length SHP2 protein (Recombinant Human SHP-2) (Homo sapiens, UniProt Q06124) for Cc1nc(N2C[C@@H]3CCC(N)[C@H]3C2)nc(C(N)=O)c1-c1cccc(Cl)c1Cl (stereo partly shown) ?
Completion: 1000

----------
Property: IC50; scope: individual compounds
Assayed Target: Full length SHP2 protein (Recombinant Human SHP-2) (Homo sapiens)
Assay Summary: SHP2 biochemical assay (DiFMUP substrate, activating peptide IRSI_2pY)
Conditions Used: DiFMUP substrate, activating peptide IRSI_2pY, 60 min at RT; read-out: SHP-2 Biochemical assay IC50
Only the number, expressed in µM, is required.

Reference set, count: 3
[
  {
    "Compound": "NC(=O)c1nc(N2CCCC(N)CC2)nc(N)c1-c1cccc(Cl)c1Cl (stereo not shown)",
    "Units Text": "µM",
    "IC50": 0.12
  },
  {
    "Compound": "NCC1CC2CCC(C1)N2c1nc(N)c(-c2cccc(Cl)c2Cl)c(C(N)=O)n1 (stereo not shown)",
    "Units Text": "µM",
    "IC50": 1.6
  },
  {
    "Compound": "NC(=O)c1nc(N2CCC3(CC2)CC(N)CCO3)nc(N)c1-c1cccc(Cl)c1Cl (stereo not shown)",
    "Units Text": "µM",
    "IC50": 7.6
  }
]

Now for another entry.
Prompt: Can you look up IC50 on Full length SHP2 protein (Recombinant Human SHP-2) (Homo sapiens) for CC1(CN)CN(c2nc(N)c(-c3cccc(Cl)c3Cl)c(C(N)=O)n2)C1 ?
Completion: 1.7

----------
Assay Summary: Pharmacokinetics in female CD1 mice (oral / intravenous)
Assay type: in vivo
Conditions Used: female, CD1, plasma, intravenous; mouse PK; read-out: Vd ss
Measurement Name: Vd (L/kg)
Only the number, expressed in L/kg, is required.

[
  {
    "Compound": "Cc1nc(N2CCC3(CC2)CO[C@@H](C)[C@H]3N)nc(C(N)=O)c1-c1cccc(Cl)c1Cl (single isomer, unassigned) [Compound 95]",
    "Endpoint Value": 3.99
  }
]

Prompt: Which Vd is reported for this compound? CC1(N)CCN(c2nc(N)c(-c3cccc(Cl)c3Cl)c(C(N)=O)n2)CC1 (single isomer, unassigned) [Compound 27]
Completion: 8.7

----------
Assayed Target: Full length SHP2 protein (Recombinant Human SHP-2) (Homo sapiens)
Assay Summary: SHP2 biochemical assay (DiFMUP substrate, activating peptide IRSI_2pY)
Conditions Used: DiFMUP substrate, activating peptide IRSI_2pY, 60 min at RT; read-out: SHP-2 Biochemical assay IC50
Measurement Name: IC50 (nM)
Only the number, expressed in nM, is required.

[
  {
    "Compound": "C[C@]1(N)CCCN(c2nc(N)c(-c3cccc(Cl)c3Cl)c(C(N)=O)n2)CC1 (atropisomer, axis not shown; (M)) [Compound 110]",
    "Units Text": "nM",
    "IC50": 4400
  },
  {
    "Compound": "NCC1CCN1c1nc(N)c(-c2cccc(Cl)c2Cl)c(C(N)=O)n1 (stereo not drawn)",
    "Units Text": "nM",
    "IC50": 1300
  },
  {
    "Compound": "NC(=O)c1nc(N2CCC3(CC2)Oc2ncccc2[C@@H]3N)nc(N)c1-c1cccc(Cl)c1Cl (single isomer, unassigned) [Compound 130]",
    "Units Text": "nM",
    "IC50": 77
  }
]

Prompt: Which IC50 is reported for this compound? Cc1nc(N2CCC3(CC2)Oc2ncccc2[C@@H]3N)nc(C(N)=O)c1-c1cccc(Cl)c1Cl [Compound 125]
Completion: 530

Prompt: Next: NC[C@@]12CCCC[C@@H]1CN(c1nc(N)c(-c3cccc(Cl)c3Cl)c(C(N)=O)n1)C2 (single isomer, unassigned) [Compound 100]
Completion: 500

Prompt: Next: Cc1nc(N2C[C@@H]3CC[C@@H](N)[C@@H]3C2)nc(C(N)=O)c1-c1cccc(Cl)c1Cl
Completion: 2100

Prompt: Next: NC(=O)c1nc(N2CCC3(CC2)Cc2ccccc2[C@H]3N)nc(N)c1-c1cccc(Cl)c1Cl (single isomer, unassigned) [Compound 117]
Completion: 1

Prompt: Next: Cc1nc(N2CCC2CN)nc(C(N)=O)c1-c1cccc(Cl)c1Cl (stereo not drawn)
Completion: 5500

Prompt: Next: CC1(N)CCN(c2nc(N)c(-c3cccc(Cl)c3Cl)c(C(=O)NO)n2)CC1
Completion: 150

Prompt: Next: Cc1nc(N2CCC(C)(N)CC2)nc(C(N)=O)c1-c1cnccc1Cl
Completion: 14000

Prompt: Next: NC[C@@H]1[C@H]2CN(c3nc(N)c(-c4cccc(Cl)c4Cl)c(C(N)=O)n3)C[C@@H]12
Completion: 5300

Prompt: Next: Cc1nc(N2CCC3(CCC[C@H]3N)C2)nc(C(N)=O)c1-c1cccc(Cl)c1Cl (stereo in doubt)
Completion: 1100

Prompt: Next: Cc1nc(N2CCC(C)(N)CC2)nc(C(N)=O)c1-c1ccnc(Cl)c1Cl
Completion: 720

Prompt: Next: Cc1nc(N[C@@H]2CCC[C@H](N)C2)nc(C(N)=O)c1-c1cccc(Cl)c1Cl (atropisomer, axis not shown; (P)) [Compound 89]
Completion: 13000

Prompt: Next: Cc1nc(N2CCCC(C)(N)CC2)nc(C(N)=O)c1-c1cccc(Cl)c1Cl (stereo not drawn)
Completion: 170

Prompt: Next: C[C@@H]1OCC2(CCN(c3nc(N)c(-c4cccc(Cl)c4Cl)c(C(N)=O)n3)CC2)[C@@H]1N
Completion: 72

Prompt: Next: Cc1nc(N2CCC3(CCC[C@H]3N)CC2)nc(C(N)=O)c1-c1cccc(Cl)c1Cl (single isomer, unassigned) [Compound 114]
Completion: 45
